# TARGET OR SYSTEM: μ-opioid receptor (Homo sapiens, UniProt P35372)
# Sequence (P35372 whole entry, species assumed): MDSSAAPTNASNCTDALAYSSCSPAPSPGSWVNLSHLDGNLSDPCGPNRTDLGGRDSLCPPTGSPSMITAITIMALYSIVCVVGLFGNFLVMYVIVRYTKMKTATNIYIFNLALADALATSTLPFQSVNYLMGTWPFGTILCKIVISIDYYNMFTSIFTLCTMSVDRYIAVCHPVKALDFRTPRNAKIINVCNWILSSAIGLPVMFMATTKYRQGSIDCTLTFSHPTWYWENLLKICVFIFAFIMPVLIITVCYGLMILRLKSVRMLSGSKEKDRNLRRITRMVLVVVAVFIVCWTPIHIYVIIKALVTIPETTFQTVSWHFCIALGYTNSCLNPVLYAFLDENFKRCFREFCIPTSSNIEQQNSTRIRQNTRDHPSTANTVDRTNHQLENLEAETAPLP
# PROTOCOL SUMMARY: μ-opioid receptor [35S]GTPγS functional assay, U-2 OS cells
# Type: biochemical
# Design: host or cells: U-2 OS cells
# if measured EC50 < 100 nM: fulfilled  # else: not fulfilled

O=C(N[C@H]1C[C@@]2(O)[C@H]3Cc4ccc(O)cc4[C@@]2(CCN3CC2CC2)C[C@H]1O)c1ccccc1 :: not fulfilled
O=C(N[C@H]1C[C@@]2(O)[C@H]3Cc4ccc(O)cc4[C@@]2(CCN3CC2CC2)CC1O)C1CCCCC1 (stereo partly shown) :: fulfilled
Oc1ccc2c(c1)[C@]13CCN(CC4CC4)[C@H](C2)[C@]1(O)C[C@@H](N1CCOCC1)[C@@H](O)C3 :: not fulfilled
Oc1ccc2c(c1)[C@]13CCN(CC4CC4)[C@H](C2)[C@]1(O)C[C@@H](NCc1ccccc1)[C@H](O)C3 :: fulfilled
O=C(O)CN[C@@H]1C[C@@]2(O)[C@H]3Cc4ccc(O)cc4[C@@]2(CCN3CC2CC2)C[C@@H]1O :: not fulfilled

Input "COc1ccc2c(c1)[C@]13CCN(CC4CC4)[C@H](C2)[C@]12C[C@H](OCc1ccccc1)[C@H](C3)O2" ; condition: EC50 strictly below 100 nM. Does it hold?
not fulfilled

Please do the same for COc1ccc2c(c1)[C@]13CCN(CC4CC4)[C@H](C2)[C@]1(O)C[C@H](NC(=O)C(C)C)C(O)C3 (stereo partly shown) as well.
not fulfilled

----------
Consider the following compounds and their measured Emax readings.
# TARGET OR SYSTEM: human κ opioid receptor (Homo sapiens)
# PROTOCOL SUMMARY: κ-opioid receptor [35S]GTPγS functional assay, U-2 OS cells
# Type: biochemical
# Set-up: expressed in transfected cells; host or cells: U-2 OS cells (in-house membranes)
# RUN CONDITIONS: U2-OS cells; relative to U69,593
Write the value in % as a bare number.

COc1ccc2c(c1)[C@]13CCN(CC4CC4)[C@H](C2)[C@]1(O)C[C@H](OCC(C)C)[C@H](O)C3 :: 86.7
COc1ccc2c(c1)[C@@]13CC[C@H](NCC(C)C)C[C@@]1(O)[C@@H](C2)N(CC1CC1)CC3 :: 102
COc1ccc2c(c1)[C@@]13CC[C@H](NC(=O)C(C)C)C[C@@]1(O)[C@@H](C2)N(CC1CC1)CC3 :: 106

Now let's try a different one.
Tell me the measured Emax of COc1ccc2c(c1)[C@]13CCN(CC4CC4)[C@H](C2)[C@]1(O)C[C@H](NC(=O)C(C)C)C(O)C3 (stereo partly shown) , please.
90.3

----------
# TARGET OR SYSTEM: μ-opioid receptor (Homo sapiens, UniProt P35372)
ASSAY ENDPOINT: pKi
# reply with the number alone; pKi is -log10 of concentration in mol/L

Below are worked cases with known answers.
N=C(N)NCCCCN[C@@H]1CC[C@@]2(O)[C@H]3Cc4ccc(O)cc4[C@@]2(CCN3CC2CC2)C1 :: 7.15
CN(C)[C@H]1CC[C@@]2(O)[C@H]3Cc4ccc(O)cc4[C@@]2(CCN3CC2CC2)C1 :: 8.42

Attention now shifts to the item below.
// query pKi value for entry "COc1ccc2c(c1)[C@]13CCN(CC4CC4)[C@H](C2)[C@]1(O)C[C@H](CO)[C@H](O)C3"
4.97

----------
# TARGET OR SYSTEM: human κ opioid receptor (Homo sapiens, UniProt P41145)
# Sequence (P41145 whole entry): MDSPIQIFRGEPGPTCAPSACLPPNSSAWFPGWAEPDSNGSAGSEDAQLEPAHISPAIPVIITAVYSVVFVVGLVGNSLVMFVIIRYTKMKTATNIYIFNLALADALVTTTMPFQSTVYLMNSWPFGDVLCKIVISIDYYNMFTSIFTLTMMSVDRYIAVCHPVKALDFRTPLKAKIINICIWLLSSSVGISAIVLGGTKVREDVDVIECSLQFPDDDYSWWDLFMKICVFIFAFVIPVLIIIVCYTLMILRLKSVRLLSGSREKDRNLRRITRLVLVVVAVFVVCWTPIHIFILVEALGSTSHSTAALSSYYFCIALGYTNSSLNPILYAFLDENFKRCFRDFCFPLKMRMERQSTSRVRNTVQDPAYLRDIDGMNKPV
# PROTOCOL SUMMARY: κ-opioid receptor [35S]GTPγS functional assay, U-2 OS cells
# Type: biochemical
# Parameters: expressed in transfected cells; host or cells: U-2 OS cells (in-house membranes)
Please note: EC50 exactly at 7 nM is Not satisfied. Only values below 7 nM get Satisfied.

Some solved entries appear below for comparison.
CN[C@@H]1C[C@@]2(O)[C@H]3Cc4ccc(O)cc4[C@@]2(CCN3CC2CC2)C[C@@H]1O [Compound 35] :: Satisfied
O=C1C=C2[C@H]3Cc4ccc(O)cc4[C@]2(CC1)CCN3CC1CC1 [Compound 68] :: Satisfied
COc1ccc2c(c1)[C@]13CCN(CC4CC4)[C@H](C2)[C@]12C[C@H](OCc1ccccc1)[C@H](C3)O2 [Compound 102] :: Not satisfied
Oc1ccc2c(c1)[C@]13CCN(CC4CC4)[C@H](C2)[C@]1(O)C[C@@H](NCc1ccccc1)[C@H](O)C3 [Compound 37] :: Satisfied
O=C(O)CN[C@@H]1C[C@@]2(O)[C@H]3Cc4ccc(O)cc4[C@@]2(CCN3CC2CC2)C[C@@H]1O [Compound 40] :: Not satisfied
CC(C)CCCC(=O)N[C@H]1C[C@@]2(O)[C@H]3Cc4ccc(O)cc4[C@@]2(CCN3CC2CC2)C[C@H]1O [Compound 62] :: Not satisfied
N=C(N)NCCCN[C@@H]1CC[C@@]2(O)[C@H]3Cc4ccc(O)cc4[C@@]2(CCN3CC2CC2)C1 [Compound 15] :: Not satisfied
CC(=O)N[C@H]1CC[C@]23CCN(CC4CC4)[C@H](Cc4ccc(O)cc42)[C@]3(O)C1 [Compound 47] :: Satisfied

Shifting focus to the molecule that follows.
A record lists COc1ccc2c(c1)[C@@]13CC[C@@H](O)C[C@@]1(O)[C@@H](C2)N(CC1CC1)CC3 [Compound 52] . Is its EC50 below 7 nM?
Not satisfied

----------
# TARGET OR SYSTEM: human κ opioid receptor (Homo sapiens, UniProt P41145)
# PROTOCOL SUMMARY: κ-opioid receptor [35S]GTPγS functional assay, HEK-293 or CHO cells
# Type: biochemical
# Design: expressed in transfected cells
# maps each entry to its EC50

Example entries begin here.
CC(C)CCCC(=O)N[C@H]1C[C@@]2(O)[C@H]3Cc4ccc(O)cc4[C@@]2(CCN3CC2CC2)CC1O (some centres unmarked) :: 23 nM
CCC(=O)N[C@H]1C[C@@]2(O)[C@H]3Cc4ccc(O)cc4[C@@]2(CCN3CC2CC2)C[C@H]1O :: 71.8 nM
COc1ccc2c(c1)[C@]13CCN(CC4CC4)[C@H](C2)[C@]1(O)CC[C@@H](CC(=O)O)C3 :: 597 nM
CC(=O)N[C@H]1C[C@@]2(O)[C@H]3Cc4ccc(O)cc4[C@@]2(CCN3CC2CC2)C[C@H]1O :: 203 nM
CCC(=O)N[C@H]1C[C@@]2(O)[C@H]3Cc4ccc(O)cc4[C@@]2(CCN3CC2CC2)C[C@@H]1O :: 26.1 nM
CC(C)C(=O)N[C@H]1C[C@@]2(O)[C@H]3Cc4ccc(O)cc4[C@@]2(CCN3CC2CC2)CC1O (some centres unmarked) :: 29.2 nM
CC(C)CN[C@@H]1C[C@@]2(O)[C@H]3Cc4ccc(O)cc4[C@@]2(CCN3CC2CC2)C[C@@H]1O :: 0.55 nM

Query (compound): "COc1ccc2c(c1)[C@]13CCN(CC4CC4)[C@H](C2)[C@]1(O)CC[C@H](O)C3" ; field requested: EC50
7860 nM

----------
The following molecules are listed with their measured Emax values.
# TARGET OR SYSTEM: μ-opioid receptor (Homo sapiens, UniProt P35372)
# PROTOCOL SUMMARY: μ-opioid receptor [35S]GTPγS functional assay, U-2 OS cells
# Assay type: biochemical
# Design: host or cells: U-2 OS cells
# RUN CONDITIONS: U2-OS cells; relative to DAMGO
Enter your answer as a number in %; do not include the unit.

These solved cases illustrate the format of a correct answer.
N=C(N)NCCCCN[C@@H]1CC[C@@]2(O)[C@H]3Cc4ccc(O)cc4[C@@]2(CCN3CC2CC2)C1 :: 78
CC(C)C(=O)N[C@H]1C[C@@]2(O)[C@H]3Cc4ccc(O)cc4[C@@]2(CCN3CC2CC2)C[C@H]1O :: 19.3

Consider the molecule "CC(C)C(=O)N[C@H]1CC[C@]23CCN(CC4CC4)[C@H](Cc4ccc(O)cc42)[C@]3(O)C1" and give its measured Emax.
54

What do we get for "N=C(N)Nc1ccc(N[C@@H]2CC[C@@]3(O)[C@H]4Cc5ccc(O)cc5[C@@]3(CCN4CC3CC3)C2)cc1" ?
55.3

Now give it for "N=C(N)NCCN[C@@H]1CC[C@@]2(O)[C@H]3Cc4ccc(O)cc4[C@@]2(CCN3CC2CC2)C1" too.
64.7

Note, next up: "CN[C@@H]1C[C@@]2(O)[C@H]3Cc4ccc(O)cc4[C@@]2(CCN3CC2CC2)C[C@@H]1O"
25.7

Now consider "Oc1ccc2c(c1)[C@]13CCN(CC4CC4)[C@H](C2)[C@]1(O)C[C@@H](NCc1ccccc1)[C@H](O)C3" .
24.3

----------
# TARGET OR SYSTEM: μ-opioid receptor (Homo sapiens, UniProt P35372)
# PROTOCOL SUMMARY: μ-opioid receptor [35S]GTPγS functional assay, HEK-293 or CHO cells
# Type: biochemical
log10(EC50) values, listed per item
Scale: decimal log of EC50, EC50 in µM.

CN1CC[C@]23C[C@@H](OCCO)C[C@@H](O)[C@@H]2[C@H]1Cc1ccc(O)cc13 [Compound 120] :: -0.36

// returns reported log10(EC50) for input CN1CC[C@]23C[C@@H](O)[C@@H](NC(=O)c4ccccc4)C[C@@]2(O)[C@H]1Cc1ccc(O)cc13 [Compound 108]
0.34

Now give it for CC(C)CCCC(=O)N[C@H]1C[C@@]2(O)[C@H]3Cc4ccc(O)cc4[C@@]2(CCN3CC2CC2)CC1O (stereo partly shown) [Compound 63] too.
-1.09

What do you have for CN[C@H]1C[C@@]2(O)[C@H]3Cc4ccc(O)cc4[C@@]2(CCN3C)C[C@H]1O [Compound 116] ?
1.14

// query: CC(C)C(=O)N[C@H]1C[C@@]2(O)[C@H]3Cc4ccc(O)cc4[C@@]2(CCN3C)C[C@H]1O [Compound 104]
1.19
